Tested on: MDA-MB-231 cells
experiment description: crystal violet assay, cellular viability
Type: cell-based, human
test parameters: Homo sapiens; MDA-MB-231, 48 hours, crystal violet; read-out: IC50 cellular viability
pIC50: −log10 of the molar value.
measured quantity: pIC50

P. CCCC[P+](CCCC)(CCCC)CCCCCCCCCCN(CCCCCCCCCC[P+](CCCC)(CCCC)CCCC)CCCCCN(O)C(=O)CCC(=O)NCCCCCN(O)C(=O)CCC(=O)NCCCCCN(O)C(C)=O [Compound 6]
Q. CCCCCCCC[P+](CCCCCCCC)(CCCCCCCC)CCCCCCCCCCN(CCCCCCCCCC[P+](CCCCCCCC)(CCCCCCCC)CCCCCCCC)CCCCCN(O)C(=O)CCC(=O)NCCCCCN(O)C(=O)CCC(=O)NCCCCCN(O)C(C)=O [Compound 10]
Param pair: P , Q . Output: the one whose pIC50 is numerically greater. Lab note: record the label of whichever item you select.
Q
(Q: 6.15, P: 5.55)
